TESTED SYSTEM: HEK293 transfected with human DDR2 (Homo sapiens)
Construct: expressed in transfected cells; host or cells: HEK293 (PLT460F_(DDR2)-P7-1)
Sequence (Q16832 22-855): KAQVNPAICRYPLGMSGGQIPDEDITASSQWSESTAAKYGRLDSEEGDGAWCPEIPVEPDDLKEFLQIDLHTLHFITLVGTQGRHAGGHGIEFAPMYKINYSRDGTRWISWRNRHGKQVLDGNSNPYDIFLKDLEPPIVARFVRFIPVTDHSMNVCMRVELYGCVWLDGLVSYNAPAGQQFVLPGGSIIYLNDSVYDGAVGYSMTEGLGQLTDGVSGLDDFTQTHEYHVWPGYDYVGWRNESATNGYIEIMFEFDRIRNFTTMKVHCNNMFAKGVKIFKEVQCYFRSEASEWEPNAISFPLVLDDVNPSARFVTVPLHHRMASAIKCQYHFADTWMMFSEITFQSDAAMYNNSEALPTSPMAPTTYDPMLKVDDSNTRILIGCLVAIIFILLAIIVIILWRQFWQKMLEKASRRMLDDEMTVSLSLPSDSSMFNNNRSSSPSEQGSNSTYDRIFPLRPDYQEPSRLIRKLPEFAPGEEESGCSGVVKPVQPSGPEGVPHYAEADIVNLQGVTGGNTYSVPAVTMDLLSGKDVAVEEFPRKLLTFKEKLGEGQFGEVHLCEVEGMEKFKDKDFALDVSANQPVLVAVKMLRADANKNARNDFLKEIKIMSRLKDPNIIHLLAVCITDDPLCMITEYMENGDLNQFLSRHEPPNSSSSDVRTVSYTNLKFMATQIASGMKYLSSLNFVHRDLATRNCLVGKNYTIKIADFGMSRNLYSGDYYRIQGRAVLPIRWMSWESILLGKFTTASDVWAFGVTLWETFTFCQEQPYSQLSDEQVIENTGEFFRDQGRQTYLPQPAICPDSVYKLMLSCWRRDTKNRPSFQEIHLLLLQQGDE
TEST SUMMARY: Phospho-DDR2 cellular assay (collagen II induced DDR2 phosphorylation, ELISA)
Assay type: cell-based
CONDITION NOTES: cellular phospho-DDR2; read-out: IC50 [p-DDR2]
READOUT NAME: IC50
Value and unit, in that order.

IN: Entry under review: CNCCOc1ccc(C(F)(F)F)cc1NC(=O)NCc1ccc(Oc2ccnc(C(=O)NC)c2)cc1 [compound 111] . Reported IC50?
OUT: 24 nM

IN: Entry under review: CNC(=O)c1cc(Oc2ccc(CNC(=O)Nc3cc(C(F)(F)F)ccc3OCCN(C)C)cc2C)ccn1 [compound 150] . Reported IC50?
OUT: 10 nM

IN: Entry under review: CNC(=O)c1cc(Oc2ccc(CNC(=O)N3C(=O)Cc4ccc(C(F)(F)F)cc43)cc2)ccn1 [compound 205] . Reported IC50?
OUT: 1100 nM

IN: Entry under review: CNC(=O)c1cc(Oc2ccc(CNC(=O)Nc3ccc(OC)nc3)cc2)ccn1 [compound 227] . Reported IC50?
OUT: 6300 nM
